assay-summary: M. tuberculosis growth inhibition, HTS (AID 449762);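 note: bacterial growth assessed after seven days of incubation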
experimental-conditions: M. tuberculosis H37Rv growth inhibition, 7H9 media; at 25 µM; hits give high values
About 1,900 (0.58%) of roughly 330,000 compounds were called active. About 4% were inconclusive and are not listed. The list is a sample of the results. Entries with a potency or affinity are not part of this list.
readout-label: inhibition (%)
# unit: % | format: bare number

Value of inhibition reported for the molecule CCn1nc(C(=O)N[C@@H](CCSC)c2nc3ccccc3[nH]2)c2ccccc2c1=O is 1.2

Value of inhibition reported for the molecule CCN1CCN(Cc2c(OC)ccc3ccccc23)CC1 is 5.17

Value of inhibition reported for the molecule CC(C)(C)c1ccc(OCCC(=O)NC2=NCCS2)cc1 is 48.1

Value of inhibition reported for the molecule CSCC[C@H](NC(=O)c1nn(C)c(=O)c2ccccc12)c1nc2ccccc2[nH]1 is -4.72

Value of inhibition reported for the molecule CC1CCCN(C(=O)COC(=O)c2cccc(NS(=O)(=O)c3ccccc3)c2)C1 (configuration not stated) is -11.8

Value of inhibition reported for the molecule c1ccc(-c2nc(NC3CCCC3)c3ccccc3n2)cc1 is 11.8

Value of inhibition reported for the molecule COc1ccc(-c2noc(C3CCCN(S(=O)(=O)c4ccc(C)c(Cl)c4)C3)n2)cc1OC (configuration not stated) is -3.19

----------
assay-summary: M. tuberculosis growth inhibition, HTS (AID 449762);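 note: bacterial growth assessed after seven days of incubation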
experimental-conditions: M. tuberculosis H37Rv growth inhibition, 7H9 media; at 25 µM; hits give high values
In all, about 330,000 compounds went through this assay and about 1,900 (0.58%) were called active. Not shown: some 4% with an inconclusive outcome. The list is a sample of the results. Potency and affinity values are given separately.
Please provide measured inhibition for the entries that follow.
# unit: % | format: bare number

Value of inhibition reported for the compound CC/C(=N\NC(=S)Nc1cccc(C)c1)c1ccccc1 is 4.58

Value of inhibition reported for the compound COCCCNC(=O)CSc1ccc(Cl)cc1 is -2.16

Value of inhibition reported for the compound COC(=O)C1CCN(C(=O)/C=C/c2ccccc2)CC1 is -5.05

Value of inhibition reported for the compound COc1ccc(S(=O)(=O)N2CCN(CC(=O)Nc3ccccc3Cl)CC2)cc1 is -4.47

Value of inhibition reported for the compound Cc1ccc2c(c1)C1C[N+](C)(CC(=O)c3ccccc3)CCC1N2C(=O)c1ccccc1Cl (stereo not drawn) is -0.23

Value of inhibition reported for the compound Cc1ccc(NCC(=O)c2ccc([N+](=O)[O-])cc2)cc1 is 8.11

Value of inhibition reported for the compound COc1ccc(C(CC(=O)c2ccc(C)cc2)Nc2ccc([N+](=O)[O-])cc2)cc1 (stereo not drawn) is 14.3

Value of inhibition reported for the compound CN(C)c1nc(NCc2ccccc2)nc(N/N=C/c2ccc(Br)cc2)n1 is 3.27

Value of inhibition reported for the compound O=C(COc1ccc(Cl)cc1Cl)Nc1ccc(-c2ccc(N3CCOCC3)nn2)cc1 is 27.4

Value of inhibition reported for the compound Nc1ccc(N(CCO)CCO)cc1 is 6.03

Value of inhibition reported for the compound O=[N+]([O-])c1ccc(-[n+]2c(-c3ccccc3)cc(-c3ccccc3)cc2-c2ccccc2)cc1 is 8.42

Value of inhibition reported for the compound Cc1nc(Nc2c(Cl)cccc2Cl)sc1C(=O)Nc1ccccc1 is 12

Value of inhibition reported for the compound CCOC(=O)c1c(C)n(OC)c2ccc3c(no[n+]3[O-])c12 is -8.43

Value of inhibition reported for the compound Cc1ccc2c(c1)C1C[N+](C)(CC(=O)Nc3ccccc3Cl)CCC1N2C(=O)c1ccccc1Cl (stereo not drawn) is 21.9

Value of inhibition reported for the compound C/C(=N\NC(=S)Nc1cccc(C)c1)c1cc2ccccc2o1 is 67.2

Value of inhibition reported for the compound O=C1C=C(c2ccc(Oc3ccccc3)cc2)C[C@@H](c2ccc(F)cc2)C1 is 24.8

Value of inhibition reported for the compound Cc1ccc(SCCC(=O)OC(C(=O)NC(N)=O)C(C)C)cc1 (stereo not drawn) is -4.48

Value of inhibition reported for the compound CCN(CC)C(=O)CN(c1cccc(Br)c1)S(C)(=O)=O is -7.74

Value source: PubChem BioAssay AID449762
